system: SARS-CoV-2; details: Table 4
reportedMetric: Calu3 SI CC50/CoV-2 EC50

Record excerpt, results attached:
molecule	targetDesc	measuredValue
N=C(N)c1ccc2cc(OC(=O)c3ccc(CNC(=O)CCCC(=O)O)o3)ccc2c1 [TO-195]	SARS-CoV-2	>45
CC(N)c1ccc(C(=O)Nc2ccncc2)cc1-c1ccc(F)cc1 (centres unmarked) [AMA-0076]	SARS-CoV-2	>16
CC(=N)N1CCC(Oc2ccc(N(Cc3ccc4ccc(C(=N)N)cc4c3)S(=O)(=O)CC(=O)O)cc2)CC1 [YM 60828]	SARS-CoV-2	>9
CCCCCCCC/C=C/CCCCCCCC(=O)OC[C@H]1O[C@@H](n2ccc(N)nc2=O)C(F)(F)[C@@H]1O [Gemcitabine elaidate]	SARS-CoV-2	>92

INPUT: State the recorded Calu3 SI CC50/CoV-2 EC50 for this entry: O=c1[nH]ccc2cc(OC3CCNCC3)ccc12 [SAR-407899]
OUTPUT: >7.77
